Where do the numbers come from? From patent US8304410B2.

# Test system: M. tuberculosis H37Rv
# assayProtocol: Antimycobacterial activity, twofold agar dilution MIC
# Type: cell-based
# measurementContext: Middlebrook 7H11 agar
measuredParameter: M. tuberculosis H37Rv MIC (mg/L)
Provide the reading as a plain figure in mg/L.

Some solved cases for reference:
INSERT INTO results (smilestext, assaytarget, measuredparameter, experimentalvalue) VALUES
  ('CSc1ccc(-c2cc(CN3CCN(C)CC3)c(C)n2-c2ccc(F)cc2)cc1', 'M. tuberculosis H37Rv', 'M. tuberculosis H37Rv MIC', 2),
  ('CSc1ccc(-c2cc(CN3CCSCC3)c(C)n2-c2ccc(C)cc2)cc1', 'M. tuberculosis H37Rv', 'M. tuberculosis H37Rv MIC', 0.25),
  ('CCCc1ccc(-n2c(-c3ccc(SC)cc3)cc(CN3CCSCC3)c2C)cc1', 'M. tuberculosis H37Rv', 'M. tuberculosis H37Rv MIC', 0.5),
  ('CSc1ccc(-c2cc(CN3CCSCC3)c(C)n2-c2ccc(C(C)C)cc2)cc1', 'M. tuberculosis H37Rv', 'M. tuberculosis H37Rv MIC', 0.5),
  ('CCc1ccc(-n2c(-c3ccc(SC)cc3)cc(CN3CCSCC3)c2C)cc1', 'M. tuberculosis H37Rv', 'M. tuberculosis H37Rv MIC', 0.25);

# input molecule: CSc1ccc(-c2cc(CN3CCOCC3)c(C)n2-c2ccc(F)cc2)cc1 ; wanted: its M. tuberculosis H37Rv MIC
0.5

====

# Test system: M. tuberculosis H37Rv
measuredParameter: MIC (µg/mL)
Provide the reading as a plain figure in µg/mL.

INSERT INTO assay_data (molecule, assaytarget, measuredparameter, experimentalvalue) VALUES
  ('CSc1ccc(-c2cc(CN3CCSCC3)c(C)n2-c2ccc(F)cc2)cc1', 'M. tuberculosis H37Rv', 'MIC', 0.125);

Entry CO[C@H]1/C=C/O[C@@]2(C)Oc3c(C)c(O)c4c(O)c(c(/C=N/N5CCN(C)CC5)c(O)c4c3C2=O)NC(=O)/C(C)=C\C=C\[C@H](C)[C@H](O)[C@@H](C)[C@@H](O)[C@@H](C)[C@H](OC(C)=O)[C@@H]1C , system M. tuberculosis H37Rv: what MIC was measured?
0.8

Entry NNC(=O)c1ccncc1 [Isoniazid, INH, Isoniazid, reference compound] , system M. tuberculosis H37Rv: what MIC was measured?
0.25

Entry [H]/N=C(/N)N[C@H]1[C@H](O)[C@@H](O)[C@H](O[C@@H]2O[C@@H](C)[C@](O)(C=O)[C@H]2O[C@@H]2O[C@@H](CO)[C@H](O)[C@@H](O)[C@@H]2NC)[C@@H](N/C(N)=N\[H])[C@@H]1O [Streptomycin, SM, Streptomycin, reference compound] , system M. tuberculosis H37Rv: what MIC was measured?
0.5

====

# Test system: M. avium 103317
# assayProtocol: Antimycobacterial activity, agar dilution MIC
# Type: cell-based
# measurementContext: Mycobacterium avium, 103317; Table 7 head prints strain 103471; read-out: M. avium 103471 MIC
measuredParameter: MIC (µg/mL)
Provide the reading as a plain figure in µg/mL.

Some solved cases for reference:
INSERT INTO measurements (compound, unitannotation, experimentalvalue) VALUES
  ('CO[C@H]1/C=C/O[C@@]2(C)Oc3c(C)c(O)c4c(O)c(c(/C=N/N5CCN(C)CC5)c(O)c4c3C2=O)NC(=O)/C(C)=C\C=C\[C@H](C)[C@H](O)[C@@H](C)[C@@H](O)[C@@H](C)[C@H](OC(C)=O)[C@@H]1C [Rifampicin, RIF, Rifampicin]', 'µg/mL', 0.3),
  ('CSc1ccc(-c2cc(CN3CCSCC3)c(C)n2-c2ccc(F)cc2)cc1 [Compound 3a]', 'µg/mL', 8),
  ('Cc1c(CN2CCN(C)CC2)cc(-c2ccc(Cl)cc2)n1-c1ccc(Cl)cc1 [BM 212]', 'µg/mL', 0.4);

Read the next record carefully.
Entry [H]/N=C(/N)N[C@H]1[C@H](O)[C@@H](O)[C@H](O[C@@H]2O[C@@H](C)[C@](O)(C=O)[C@H]2O[C@@H]2O[C@@H](CO)[C@H](O)[C@@H](O)[C@@H]2NC)[C@@H](N/C(N)=N\[H])[C@@H]1O [Streptomycin, SM, Streptomycin, reference compound] , system M. avium 103317: what MIC was measured?
8

====

Attribute: MIC
# Tested on: M. smegmatis 103599
# assayProtocol: Antimycobacterial activity, agar dilution MIC
# Assay type: cell-based
# measurementContext: Mycolicibacterium smegmatis, 103599; read-out: M. smegmatis 103599 MIC
Provide the reading as a plain figure in µg/mL.

Some solved cases for reference:
INSERT INTO assay_data (compound, experimentalvalue) VALUES
  ('CO[C@H]1/C=C/O[C@@]2(C)Oc3c(C)c(O)c4c(O)c(c(/C=N/N5CCN(C)CC5)c(O)c4c3C2=O)NC(=O)/C(C)=C\C=C\[C@H](C)[C@H](O)[C@@H](C)[C@@H](O)[C@@H](C)[C@H](OC(C)=O)[C@@H]1C [Rifampicin, RIF, Rifampicin]', 32),
  ('Cc1c(CN2CCN(C)CC2)cc(-c2ccc(Cl)cc2)n1-c1ccc(Cl)cc1 [BM 212]', 25),
  ('CSc1ccc(-c2cc(CN3CCSCC3)c(C)n2-c2ccc(F)cc2)cc1 [Compound 3a]', 16);

Entry [H]/N=C(/N)N[C@H]1[C@H](O)[C@@H](O)[C@H](O[C@@H]2O[C@@H](C)[C@](O)(C=O)[C@H]2O[C@@H]2O[C@@H](CO)[C@H](O)[C@@H](O)[C@@H]2NC)[C@@H](N/C(N)=N\[H])[C@@H]1O [Streptomycin, SM, Streptomycin, reference compound] , system M. smegmatis 103599: what MIC was measured?
8

====

# Tested on: Vero cells
# measurementContext: MTT after 72 h
measuredParameter: CC50 VERO cells
The answer consists of two parts: a number and, after it, its unit.

Some solved cases for reference:
INSERT INTO measurements (compound, experimentalvalue) VALUES
  ('CCc1ccc(-n2c(-c3ccc(SC)cc3)cc(CN3CCSCC3)c2C)cc1 [Compound 3c]', '17.18 µg/mL'),
  ('CSc1ccc(-c2cc(CN3CCSCC3)c(C)n2-c2ccc(C(C)C)cc2)cc1 [Compound 3e]', '37.58 µg/mL'),
  ('CCCc1ccc(-n2c(-c3ccc(SC)cc3)cc(CN3CCSCC3)c2C)cc1 [Compound 3d]', '25.25 µg/mL'),
  ('CSc1ccc(-c2cc(CN3CCSCC3)c(C)n2-c2ccc(C)cc2)cc1 [Compound 3b]', '18.40 µg/mL');

# input compound: CSc1ccc(-c2cc(CN3CCOCC3)c(C)n2-c2ccc(F)cc2)cc1 [Compound 3h] ; wanted: its CC50 VERO cells
44.34 µg/mL

# input compound: CSc1ccc(-c2cc(CN3CCN(C)CC3)c(C)n2-c2ccc(F)cc2)cc1 [Compound 3f] ; wanted: its CC50 VERO cells
9.33 µg/mL

====

# assayProtocol: in vitro
# measurementContext: African green monkey
Attribute: CC50
Provide the reading as a plain figure in µg/mL.

INSERT INTO results (molecule, experimentalvalue) VALUES
  ('NNC(=O)c1ccncc1 [Isoniazid, INH, Isoniazid, reference compound]', 32),
  ('Cc1c(CN2CCN(C)CC2)cc(-c2ccc(Cl)cc2)n1-c1ccc(Cl)cc1', 4);

# input molecule: [H]/N=C(/N)N[C@H]1[C@H](O)[C@@H](O)[C@H](O[C@@H]2O[C@@H](C)[C@](O)(C=O)[C@H]2O[C@@H]2O[C@@H](CO)[C@H](O)[C@@H](O)[C@@H]2NC)[C@@H](N/C(N)=N\[H])[C@@H]1O [Streptomycin, SM, Streptomycin, reference compound] ; wanted: its CC50
64

====

Attribute: M. avium 103471 MIC
# Tested on: M. avium 103317
# assayProtocol: Antimycobacterial activity, agar dilution MIC
# Assay type: cell-based
# measurementContext: Table 7 head prints strain 103471
Provide the reading as a plain figure in µg/mL.

# input molecule: CSc1ccc(-c2cc(CN3CCSCC3)c(C)n2-c2ccc(C)cc2)cc1 ; wanted: its M. avium 103471 MIC
16

# input molecule: CSc1ccc(-c2cc(CN3CCSCC3)c(C)n2-c2ccc(C(C)C)cc2)cc1 ; wanted: its M. avium 103471 MIC
8

# input molecule: CSc1ccc(-c2cc(CN3CCN(C)CC3)c(C)n2-c2ccc(F)cc2)cc1 ; wanted: its M. avium 103471 MIC
4

# input molecule: CSc1ccc(-c2cc(CN3CCOCC3)c(C)n2-c2ccc(F)cc2)cc1 ; wanted: its M. avium 103471 MIC
16

# input molecule: CCCc1ccc(-n2c(-c3ccc(SC)cc3)cc(CN3CCSCC3)c2C)cc1 ; wanted: its M. avium 103471 MIC
8
